test system: BT-549 breast; test: NCI-60 one-dose screen, 48 h; details: 10 µM unless noted
About 83,000 compounds went through this panel and 20% of them were active in at least one assay; those are over-represented in the sample as a whole. Active and inactive are the calls of the source. The calls were made as follows: active = growth percent below 10; inactive = the rest.
The reply should name one outcome from true for active, false for inactive

-- ask // outcome(item) with item = "COc1cc(-c2csc(NC(=O)Nc3ccc(Cl)cc3)n2)cc(OC)c1OC"
-- reply false

###

Tested on: NCI-H322M lung
Assay: NCI-60 one-dose screen, 48 h (100 = growth as untreated, 0 = no growth, -100 = all killed)
Details: 10 µM unless noted
Protocol: Growth inhibition of the NCI-H322M human Non-Small Cell Lung tumor cell line is measured as a screen for anti-cancer activity. Cells are grown in 96 well plates and exposed to the test compound for 48 hours. Compounds are tested at a single concentration, which is 10^-5 M for most compounds. The reported endpoint is percent growth (GI% or GIPRCNT), where numbers from 0 - 100% represent growth inhibition, and numbers from -100% - 0 represent cell death. […]
Compounds without any hit were thinned out: in the full panel of roughly 83,000, 20% have a hit.
# cutoff 90% applies to growth; >= gives TRUE, < gives FALSE

Compound	Label Class
S=C(Nc1ccccc1)c1ccccn1	TRUE

-- ask Hi team, for "Cc1cccc(C)c1Nc1nnc(-c2ccc(F)cc2)o1" , is the recorded growth at or above 90%?
-- reply TRUE

-- ask Hi team, for "O=C(O)c1ccc(-n2cc(/C=N/Nc3ccc(Cl)cc3Cl)c(-c3ccccc3)n2)cc1" , is the recorded growth at or above 90%?
-- reply TRUE

-- ask Hi team, for COc1ccc2nc(-c3ccc(Cl)cc3)cc(C(=O)N3N=C(c4ccc(N)cc4)CC3c3ccccc3)c2c1 (stereo not drawn) , is the recorded growth at or above 90%?
-- reply FALSE
